Cited source for all entries: the supplement of paper PMC7125110

B1: glmS ribozyme (parent)
chain: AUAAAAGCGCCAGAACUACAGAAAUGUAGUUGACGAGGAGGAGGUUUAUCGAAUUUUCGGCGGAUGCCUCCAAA

# Variants of: B1
# TEST_SUMMARY: self-cleavage kobs at 160 uM GlcN6P; higher = faster cleavage; RNA array
# CONDITION_SUMMARY: with glucosamine-6-phosphate
This sample holds only a part of the variants without activity.
variants and their reported self-cleavage kobs at 160 uM GlcN6P
State the answer as a number, implicitly in s⁻¹.

Please review the entries below; each comes with its answer.
{"MUTATION_LABEL": "C11U A12U C71A", "UNIT": "s⁻¹", "self-cleavage kobs at 160 uM GlcN6P": "8.52e-05"}
{"MUTATION_LABEL": "A53C C70U", "UNIT": "s⁻¹", "self-cleavage kobs at 160 uM GlcN6P": 0.000315}
{"MUTATION_LABEL": "A14G C70A", "UNIT": "s⁻¹", "self-cleavage kobs at 160 uM GlcN6P": 0.000287}
{"MUTATION_LABEL": "U65G C67A", "UNIT": "s⁻¹", "self-cleavage kobs at 160 uM GlcN6P": 0.000116}
{"MUTATION_LABEL": "G66A C71G", "UNIT": "s⁻¹", "self-cleavage kobs at 160 uM GlcN6P": 0.000141}

Documented self-cleavage kobs at 160 uM GlcN6P of G51U U69G C71A : 0.00015

The variant U47A A53G showed self-cleavage kobs at 160 uM GlcN6P equal to 0.00166

The measured self-cleavage kobs at 160 uM GlcN6P associated with A15G G32U reads 6.02e-05

Summary for this variant, A39U U65C : self-cleavage kobs at 160 uM GlcN6P is 0.000124

The reported self-cleavage kobs at 160 uM GlcN6P of the variant A12C U30A was 0.000144

Data point: U54C C71G ; self-cleavage kobs at 160 uM GlcN6P = 0.000132

// self-cleavage kobs at 160 uM GlcN6P value for A52G U54A : 9.56e-05

// self-cleavage kobs at 160 uM GlcN6P value for U31C U55C : 0.000317

// C16A G59A C70G : self-cleavage kobs at 160 uM GlcN6P value = 9.32e-05

// field: self-cleavage kobs at 160 uM GlcN6P; key: A15G U54C ; value = 0.0021

Query C58G C67G yields self-cleavage kobs at 160 uM GlcN6P of 5.68e-05

G40A A42G yielded self-cleavage kobs at 160 uM GlcN6P of 0.00046

Lab note: A15U G43U U56A C68A gave self-cleavage kobs at 160 uM GlcN6P of 0.000115

Looking up G40U A53U , I see its self-cleavage kobs at 160 uM GlcN6P listed as 0.000254

Short answer for C67U C68U C71G : self-cleavage kobs at 160 uM GlcN6P was 7.37e-05
